TARGET_OR_TEST_SYSTEM: human VDR (Homo sapiens, UniProt P11473)
Sequence (P11473 1-427): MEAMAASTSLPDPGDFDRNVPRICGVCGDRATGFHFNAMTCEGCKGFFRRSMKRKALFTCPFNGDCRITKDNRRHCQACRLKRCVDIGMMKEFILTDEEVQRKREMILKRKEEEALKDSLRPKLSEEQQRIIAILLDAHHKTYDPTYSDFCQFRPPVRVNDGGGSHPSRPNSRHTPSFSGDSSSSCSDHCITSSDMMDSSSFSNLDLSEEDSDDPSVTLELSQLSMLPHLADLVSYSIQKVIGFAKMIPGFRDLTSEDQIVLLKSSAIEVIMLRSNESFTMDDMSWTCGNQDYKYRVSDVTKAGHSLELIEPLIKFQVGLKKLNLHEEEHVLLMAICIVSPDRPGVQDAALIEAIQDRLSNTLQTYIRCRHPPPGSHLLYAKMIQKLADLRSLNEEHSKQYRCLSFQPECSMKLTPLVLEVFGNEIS

{"MOLECULE": "CCC(CC)(c1ccc(OCC(=O)C(C)(C)C)c(C)c1)c1ccc(OCC2CO2)c(C)c1 (stereo not drawn)", "Ki": "> 10 µM"}
{"MOLECULE": "CCC(CC)(c1ccc(OCC(=O)C(C)(C)C)c(C)c1)c1ccc(OCC(O)C(C)(C)C)c(C)c1 (stereo not drawn)", "Ki": "> 10 µM"}
{"MOLECULE": "Cc1cc(C2(c3ccc(OCC(=O)C(C)(C)C)c(C)c3)CCCCC2)ccc1OCC(=O)C(C)(C)C", "Ki": "> 10 µM"}

* * *

Reported values of EC50 for individual entries
Test system: SK-BR-3 breast cancer cells
MEASUREMENT_DESCRIPTION: Breast cancer cell growth inhibition (BrdU)
Format: cell-based
DETAILS: Homo sapiens, SK-BR-3, 72 h, BrdU incorporation, 3-day assay

{"COMPOUND": "CCC(CC)(c1ccc(OCC(=O)C(C)(C)C)c(C)c1)c1ccc(OCC(=O)C(C)(C)C)c(C)c1", "UNIT_OF_MEASUREMENT": "nM", "EC50": 800}
{"COMPOUND": "CCC(CC)(c1ccc(OCC(=O)C(C)(C)C)c(C)c1)c1ccc(OCC2CO2)c(C)c1 (stereo not drawn)", "UNIT_OF_MEASUREMENT": "nM", "EC50": 150}
{"COMPOUND": "Cc1cc(C2(c3ccc(OCC(=O)C(C)(C)C)c(C)c3)CCCCC2)ccc1OCC(=O)C(C)(C)C", "UNIT_OF_MEASUREMENT": "nM", "EC50": 2000}
{"COMPOUND": "CCC(CC)(c1ccc(OCC(=O)C(C)(C)C)c(C)c1)c1ccc(OCC(O)C(C)(C)C)c(C)c1 (stereo not drawn)", "UNIT_OF_MEASUREMENT": "nM", "EC50": 500}

* * *

TARGET_OR_TEST_SYSTEM: human VDR (Homo sapiens, UniProt P11473)
MEASUREMENT_DESCRIPTION: Cotransactivation (CTF) in Hep G2 cells, VDRE-luciferase reporter
Format: cell-based
Parameters: expressed in transfected cells; host or cells: Hep G2 (human hepatoma, ATCC)
Description: Cotransactivation properties. […] Reporter and receptor containing vectors were transfected along with carrier DNA and β-galactosidase internal control plasmid as previously described except that Hep G2 cells were used (Id). […]

{"COMPOUND": "CCC(CC)(c1ccc(OCC(=O)C(C)(C)C)c(C)c1)c1ccc(OCC(O)C(C)(C)C)c(C)c1 (centres unmarked)", "EC50": "400 nM"}
{"COMPOUND": "Cc1cc(C2(c3ccc(OCC(=O)C(C)(C)C)c(C)c3)CCCCC2)ccc1OCC(=O)C(C)(C)C", "EC50": "2200 nM"}
